tested on: K-562 leukemia; assay: NCI tumour cell line growth inhibition, 48 h; in the data active means GI50 below about 0.43 µM; inactive means the rest
Classes used: class 1 for active, class 0 for inactive

>  <molecule>
COc1cc([C@@H]2c3cc4c(c(O)c3C[C@H]3COC(=O)[C@@H]32)OCO4)cc(OC)c1OC

>  <test_system>
K-562 leukemia

>  <assigned_class>
class 1

$$$$
>  <molecule>
N#Cc1c(NC(=O)NCc2ccccc2)sc2c1CCCC2

>  <test_system>
K-562 leukemia

>  <assigned_class>
class 0

$$$$
>  <molecule>
CO/C=C/C(=O)c1cc2cnc3c(=N)cc(NC(=O)C(C)C)c([nH]1)c23

>  <test_system>
K-562 leukemia

>  <assigned_class>
class 1

$$$$
>  <molecule>
C=C(C)C(=O)O[C@H]1CC2=C[C@@H](C[C@@]3(C)O[C@@H]3[C@H]3OC(=O)C(=C)[C@@H]31)OC2=O

>  <test_system>
K-562 leukemia

>  <assigned_class>
class 0

$$$$
>  <molecule>
CC(C)(C)N1CCC1CN (stereo not given)

>  <test_system>
K-562 leukemia

>  <assigned_class>
class 0

$$$$
>  <molecule>
Cc1cccc(-c2[nH]ncc2-c2ccc3ncccc3n2)n1

>  <test_system>
K-562 leukemia

>  <assigned_class>
class 0

$$$$
>  <molecule>
O=C(c1ccco1)c1nc2cc(C(F)(F)F)ccc2nc1C(F)(F)F

>  <test_system>
K-562 leukemia

>  <assigned_class>
class 0

$$$$
>  <molecule>
COc1cccc(CCC2CCCN(c3cc(C)nc(N)n3)C2)c1 (stereo not given)

>  <test_system>
K-562 leukemia

>  <assigned_class>
class 1

$$$$
>  <molecule>
Cc1ccc(Cl)cc1Nc1nc(C(F)(F)F)ccc1C(=O)N/N=C/c1cccnc1

>  <test_system>
K-562 leukemia

>  <assigned_class>
class 0

$$$$
>  <molecule>
C[C@]12CCc3nc(Nc4cccc(O)c4)sc3C1=CC[C@@H]1[C@@H]2CC[C@]2(C)/C(=N\NC(N)=S)CC[C@@H]12

>  <test_system>
K-562 leukemia

>  <assigned_class>
class 0

$$$$

====

test system: HOP-92 NSCLC; assay: NCI tumour cell line growth inhibition, 48 h
I would appreciate it if you labelled entries met when TGI is 3 µM or higher, otherwise not met.

>  <compound>
Cc1[nH]c(=O)nc2c1C(NCCCN(C)C)c1cc(Cl)ccc1N2 (stereo not given)

>  <assigned_class>
met

$$$$
>  <compound>
NC(=S)N/N=C/c1nccc2ccccc12

>  <assigned_class>
met

$$$$
>  <compound>
NC1=NC2=c3ccccc3=C(c3cnccn3)C2(c2cnccn2)c2ccccc21 (stereo not given)

>  <assigned_class>
met

$$$$
>  <compound>
CC(=O)OCC(OC(C)=O)C(OC(C)=O)C(/C=N\Nc1nc2ccccc2c(=O)[nH]1)=N\Nc1nc2ccccc2c(=O)[nH]1 (stereo not given)

>  <assigned_class>
met

$$$$
>  <compound>
CSc1ccc(-c2ccccc(=O)c2O)cc1

>  <assigned_class>
met

$$$$
>  <compound>
COc1cccc(CCC2CCCN(c3cc(C)nc(N)n3)C2)c1 (stereo not given)

>  <assigned_class>
met

$$$$
>  <compound>
COC1=CC(c2ccc[nH]2)=N/C1=C\c1[nH]c(C)c(CC(=O)OCc2ccccc2)c1CCC(=O)OCc1ccccc1

>  <assigned_class>
not met

$$$$
>  <compound>
Nc1ccccc1NC(=O)c1ccc(CNc2nccc(-c3cccnc3)n2)cc1

>  <assigned_class>
not met

$$$$
>  <compound>
c1ccc([CH2][Sn]([CH2]c2ccccc2)([O]c2cccc3cccnc23)[O]c2cccc3cccnc23)cc1

>  <assigned_class>
not met

$$$$
>  <compound>
CC(=O)N1N=C(c2ccc3ccccc3c2O)CC1c1cccs1 (stereo not given)

>  <assigned_class>
met

$$$$
